Tgt: T1, RBFOX1 RRM RbFoxmut (Fox-RRM*) (Homo sapiens, UniProt Q9NWB1 109-208, R118D;E147R;N151S;E152T)
T1 sequence: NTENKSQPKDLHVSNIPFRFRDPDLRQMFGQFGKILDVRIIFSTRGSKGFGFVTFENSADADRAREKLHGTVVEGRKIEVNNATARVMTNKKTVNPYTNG
Procedure Text: EMSA; HiTS-Eq, 1 nM pool, 10 min; buffer printed only for the single-RNA assays: 10 mM Tris pH 7.5, 150 mM NaCl, 3.4 mM EDTA, 0.001% NP-40, 30 C
Condition Details: tags: His6 N-terminal (pET28a); label: 5' 32P
In all, about 16,000 sequences were measured (“ka relative to ugcaugu”: median about 0.096, highest 2% from about 0.35 on). The sample holds the highest values, similar sequences and a random draw of the others, so the mix is not that of the screen.
Readout: binding signal

>  <Binder>
UCCAGUA (DNA:RNA) RNA: GGGAGACCGGAAUUCAGAUUGUCCUCCAGUAUUAAAUCCCGUCGUAGCCACCA DNA 1: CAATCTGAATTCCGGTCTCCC DNA 2: TGGTGGCTACGACGGGATT

>  <binding signal>
0.135 KA relative to UGCAUGU

$$$$
>  <Binder>
CUCUUGA (DNA:RNA) RNA: GGGAGACCGGAAUUCAGAUUGUCCCUCUUGAUUAAAUCCCGUCGUAGCCACCA DNA 1: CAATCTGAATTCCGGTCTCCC DNA 2: TGGTGGCTACGACGGGATT

>  <binding signal>
0.107 KA relative to UGCAUGU

$$$$
>  <Binder>
UGCCGUU (DNA:RNA) RNA: GGGAGACCGGAAUUCAGAUUGUCCUGCCGUUUUAAAUCCCGUCGUAGCCACCA DNA 1: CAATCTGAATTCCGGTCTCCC DNA 2: TGGTGGCTACGACGGGATT

>  <binding signal>
0.113 KA relative to UGCAUGU

$$$$
>  <Binder>
GAAAUCG (DNA:RNA) RNA: GGGAGACCGGAAUUCAGAUUGUCCGAAAUCGUUAAAUCCCGUCGUAGCCACCA DNA 1: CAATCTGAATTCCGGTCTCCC DNA 2: TGGTGGCTACGACGGGATT

>  <binding signal>
0.0585 KA relative to UGCAUGU

$$$$
>  <Binder>
GGUACGA (DNA:RNA) RNA: GGGAGACCGGAAUUCAGAUUGUCCGGUACGAUUAAAUCCCGUCGUAGCCACCA DNA 1: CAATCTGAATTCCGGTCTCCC DNA 2: TGGTGGCTACGACGGGATT

>  <binding signal>
0.165 KA relative to UGCAUGU

$$$$

[in] Quick one: binding signal for ACGUAGU (DNA:RNA) RNA: GGGAGACCGGAAUUCAGAUUGUCCACGUAGUUUAAAUCCCGUCGUAGCCACCA DNA 1: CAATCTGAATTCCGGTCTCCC DNA 2: TGGTGGCTACGACGGGATT ?
[out] 0.15 KA relative to UGCAUGU

[in] Quick one: binding signal for UGAAUUG (DNA:RNA) RNA: GGGAGACCGGAAUUCAGAUUGUCCUGAAUUGUUAAAUCCCGUCGUAGCCACCA DNA 1: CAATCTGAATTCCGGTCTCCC DNA 2: TGGTGGCTACGACGGGATT ?
[out] 0.174 KA relative to UGCAUGU

[in] Quick one: binding signal for ACCACCC (DNA:RNA) RNA: GGGAGACCGGAAUUCAGAUUGUCCACCACCCUUAAAUCCCGUCGUAGCCACCA DNA 1: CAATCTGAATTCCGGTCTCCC DNA 2: TGGTGGCTACGACGGGATT ?
[out] 0.0531 KA relative to UGCAUGU

[in] Quick one: binding signal for CAUUCUU (DNA:RNA) RNA: GGGAGACCGGAAUUCAGAUUGUCCCAUUCUUUUAAAUCCCGUCGUAGCCACCA DNA 1: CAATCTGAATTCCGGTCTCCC DNA 2: TGGTGGCTACGACGGGATT ?
[out] 0.101 KA relative to UGCAUGU

Hey, just so you know, these numbers are from paper PMC9911399.
